Recorded values, source the METLIN SMRT retention time set (Domingo-Almenara et al. 2019).

In this section we review reported RP-LC retention time values for a set of molecules.
- Method summary: gradient 5% acetonitrile 3 min, to 50% in 2 min, to 85% in 15 min, held 3 min, 100 µL/min
- Condition parameters: column: Zorbax Extend-C18 2.1 x 50 mm; eluents: water / acetonitrile, 0.1% formic acid
Measured metric: RP-LC retention time (s)

{"Molecule": "COc1ccc(OC)c(C2CCN(C(=O)c3nc(-c4oc5c(C)cccc5c4C)no3)C2)c1 (centres undefined)", "Reading unit": "s", "Obs value": 1310}
{"Molecule": "CCS(=O)(=O)N1CC(=O)N(c2cc(Cl)ccc2C)C(C)(C(=O)NCc2ccccc2)C1 (centres undefined)", "Reading unit": "s", "Obs value": 919}
{"Molecule": "Cc1ccc(C)c(S(=O)(=O)Nc2ccc(Cn3cncn3)cc2)c1", "Reading unit": "s", "Obs value": 725}
{"Molecule": "CCOC(=O)c1c(S(=O)(=O)N2CCC(C(=O)Nc3ccc(F)cc3C)CC2)c(C)n(C)c1C", "Reading unit": "s", "Obs value": 897}

* * *

Recorded RP-LC retention time, one value per entry.
- Method summary: gradient 5% acetonitrile 3 min, to 50% in 2 min, to 85% in 15 min, held 3 min, 100 µL/min
- Condition parameters: column: Zorbax Extend-C18 2.1 x 50 mm; eluents: water / acetonitrile, 0.1% formic acid

{"Chemical string": "COc1ccc(S(=O)(=O)N2C[C@H]3CN(S(=O)(=O)c4ccccc4)C[C@@H](C2)O3)cc1", "RP-LC retention time": "893 s"}
{"Chemical string": "CN(Cc1ccccc1)c1ncc(C(=O)O)c(-c2ccncc2)n1", "RP-LC retention time": "675 s"}
{"Chemical string": "O=C(CN1C(=O)COc2ccc(C(=O)N3CCCC3)cc21)Nc1ccccc1F", "RP-LC retention time": "694 s"}
{"Chemical string": "CCOC(=O)c1cnn2c(SC)ncnc12", "RP-LC retention time": "776 s"}
{"Chemical string": "C=CCN1CCN(c2ccc3nnc(CCc4nc(-c5ccccc5OC)no4)n3n2)CC1", "RP-LC retention time": "573 s"}

* * *

- Method summary: gradient 5% acetonitrile 3 min, to 50% in 2 min, to 85% in 15 min, held 3 min, 100 µL/min
- Condition parameters: column: Zorbax Extend-C18 2.1 x 50 mm; eluents: water / acetonitrile, 0.1% formic acid
Under this convention, yes denotes RP-LC retention time strictly below 800 s and no denotes RP-LC retention time at or above 800 s.

{"Chemical string": "O=C(NCc1ccc(F)cc1)N1CCN(c2cc(-c3ccncc3)[nH]n2)CC1", "Answer label": "yes"}
{"Chemical string": "CSc1ccc(-c2nc3ncccn3c2Nc2cc(C)ccc2C)cc1", "Answer label": "no"}
{"Chemical string": "O=C(Cc1csc2nc(-c3ccccc3)cn12)Nc1ccc2c(c1)OCCO2", "Answer label": "yes"}
{"Chemical string": "CC(C)(C)C(=O)Nc1ccc2nc(N3CCN(CC(=O)N4CCCCCC4)CC3)cc(C(=O)O)c2c1", "Answer label": "yes"}
{"Chemical string": "COc1ccc(C)cc1NS(=O)(=O)c1ccc2c(c1)C(=O)N(C)c1ncccc1O2", "Answer label": "no"}
{"Chemical string": "Cn1nnc2c(N3CCN(C(=O)C(C)(C)Oc4ccc(Cl)cc4)CC3)ncnc21", "Answer label": "no"}
{"Chemical string": "O=C(COc1ccc(Cl)cc1)NCC(=O)N1CCCc2ccccc21", "Answer label": "no"}

* * *

- Method summary: gradient 5% acetonitrile 3 min, to 50% in 2 min, to 85% in 15 min, held 3 min, 100 µL/min
- Condition parameters: column: Zorbax Extend-C18 2.1 x 50 mm; eluents: water / acetonitrile, 0.1% formic acid

{"Compound": "CCOc1ccccc1C(=O)NCCS(=O)(=O)N1CCN(c2ccccn2)CC1", "RP-LC retention time / s": 597}
{"Compound": "Cc1ccc(CNC(=O)C2CCN(S(=O)(=O)c3cc(-c4noc(C)n4)sc3C)CC2)o1", "RP-LC retention time / s": 906}
{"Compound": "CCC(C(=O)NCCOC)n1nc(C)c2sc3ccccc3c2c1=O (stereo not given)", "RP-LC retention time / s": 826}
{"Compound": "COC(=O)Nc1nc(CC(=O)Nc2ccc(OC(F)(F)F)cc2)cs1", "RP-LC retention time / s": 766}
{"Compound": "Cc1ccc(S(=O)(=O)Nc2n[nH]nc2C(N)=O)cc1", "RP-LC retention time / s": 603}

* * *

- Method summary: gradient 5% acetonitrile 3 min, to 50% in 2 min, to 85% in 15 min, held 3 min, 100 µL/min
- Condition parameters: column: Zorbax Extend-C18 2.1 x 50 mm; eluents: water / acetonitrile, 0.1% formic acid
Mark Satisfied only for RP-LC retention time values smaller than 800 s; exact matches and larger values are Not satisfied.

{"Compound": "O=C([C@H]1C[C@@H](F)CN1C(=O)Nc1cccc(Cl)c1)N1CCOCC1", "Answer label": "Satisfied"}
{"Compound": "CC(C)CNC(=O)C1CCN(c2nc3ccc(-c4cncnc4)nc3s2)CC1", "Answer label": "Satisfied"}
{"Compound": "Cc1ccc(N2CC(c3nc(-c4ccc(Cl)cc4)no3)CC2=O)cc1 (centres undefined)", "Answer label": "Not satisfied"}
{"Compound": "O=C(Nc1nnc(SCc2cccc(Cl)c2)s1)c1ccccc1C(F)(F)F", "Answer label": "Not satisfied"}
{"Compound": "O=C(CCCn1c(=O)c2cccn2c2ccccc21)N1CCN(c2ccccn2)CC1", "Answer label": "Satisfied"}
{"Compound": "O=C(c1ccc(S(=O)(=O)c2ccc(Br)cc2)nc1)N1CCN(c2ncccn2)CC1", "Answer label": "Not satisfied"}
{"Compound": "CCOC(=O)CCC(=O)Nc1nnc(-c2cc(C)oc2C)o1", "Answer label": "Satisfied"}
{"Compound": "Cc1ccc(NC(=O)Cn2c(N)nc(C)c(C)c2=O)cc1", "Answer label": "Satisfied"}
{"Compound": "CCOC(=O)c1nc(N(C)c2cccc(C)c2)c2ccccc2n1", "Answer label": "Not satisfied"}
{"Compound": "CC(C)c1ccc(-c2nc(C3CC(=O)N(c4ccc(F)c(Cl)c4)C3)no2)cc1 (centres undefined)", "Answer label": "Not satisfied"}
{"Compound": "Cc1nc2cc(-c3noc(-c4cccc(F)c4)n3)ccc2n(C)c1=O", "Answer label": "Not satisfied"}
{"Compound": "COCC1(F)CCN(Cc2c(-c3cc(C)ccc3C)nc3cc(C)ccn23)CC1", "Answer label": "Satisfied"}
{"Compound": "Cc1noc(-c2ccc(-n3cnc(C(=O)NC(C)c4ccc(F)cc4)c3)nc2)n1 (centres undefined)", "Answer label": "Not satisfied"}
{"Compound": "CCN1CCC(n2cc(CNc3cc(Cl)c4ncc(C#N)c(Nc5ccc(F)c(Cl)c5)c4c3)nn2)CC1", "Answer label": "Satisfied"}
{"Compound": "CC(=O)NCc1csc(C2CCN(C(=O)COc3ccccc3)CC2)n1", "Answer label": "Satisfied"}
{"Compound": "O=C1NC2(CCN(C(=O)NCCc3ccccc3)CC2)Nc2cc(Cl)ccc21", "Answer label": "Satisfied"}
{"Compound": "COc1ccccc1N1CCN(c2cc(SCC(=O)Nc3ccc(C)cc3C)ncn2)CC1", "Answer label": "Not satisfied"}

* * *

- Method summary: gradient 5% acetonitrile 3 min, to 50% in 2 min, to 85% in 15 min, held 3 min, 100 µL/min
- Condition parameters: column: Zorbax Extend-C18 2.1 x 50 mm; eluents: water / acetonitrile, 0.1% formic acid
# RP-LC retention time per entry
Measured metric: RP-LC retention time (s)

{"Compound": "O=C(O)c1cc(I)ccc1NC(=O)[C@H](Cc1ccccc1)NCc1ccccc1", "Measured metric": "RP-LC retention time", "Reading unit": "s", "Obs value": 863}
{"Compound": "COc1ccccc1-c1noc(C2CCCN2C(=O)Nc2ccccc2)n1 (stereo not given)", "Measured metric": "RP-LC retention time", "Reading unit": "s", "Obs value": 848}
{"Compound": "COc1ccc(NC(=O)c2csc(-c3ccc(C)n3C)n2)c(OC)c1", "Measured metric": "RP-LC retention time", "Reading unit": "s", "Obs value": 1200}
{"Compound": "Cc1ccc2c(c1)N(S(C)(=O)=O)CCC(C(=O)Nc1ccc(C)c(C)c1)O2 (stereo not given)", "Measured metric": "RP-LC retention time", "Reading unit": "s", "Obs value": 912}
{"Compound": "COc1ccc(CC(=O)N2CCCC2c2nc(-c3ccc(OC)c(OC)c3)no2)cc1Cl (stereo not given)", "Measured metric": "RP-LC retention time", "Reading unit": "s", "Obs value": 911}
{"Compound": "O=C(NC1CCCCC1)c1csc(N2CCN(c3ccccc3)CC2)n1", "Measured metric": "RP-LC retention time", "Reading unit": "s", "Obs value": 1160}
{"Compound": "Cc1c(Cl)cccc1-n1ccnc(NC(=O)Nc2ccc3c(c2)OCO3)c1=O", "Measured metric": "RP-LC retention time", "Reading unit": "s", "Obs value": 995}
{"Compound": "COc1ccc(NC(=O)c2c(-c3c(F)cccc3Cl)noc2C)cc1[N+](=O)[O-]", "Measured metric": "RP-LC retention time", "Reading unit": "s", "Obs value": 992}
{"Compound": "Cc1ccc(-c2nc3cnccn3c2NCCC(=O)NCc2cccs2)cc1", "Measured metric": "RP-LC retention time", "Reading unit": "s", "Obs value": 700}
{"Compound": "Cc1cc(S(=O)(=O)NCC(c2cccs2)S(=O)(=O)c2ccccc2)ccc1F (stereo not given)", "Measured metric": "RP-LC retention time", "Reading unit": "s", "Obs value": 906}
{"Compound": "CCC(C)NC(=O)C1CCN(S(=O)(=O)c2ccc3c(c2)sc(=O)n3C)CC1 (stereo not given)", "Measured metric": "RP-LC retention time", "Reading unit": "s", "Obs value": 757}
{"Compound": "Brc1cccc(-c2noc(Cc3nnc(-c4ccccc4)o3)n2)c1", "Measured metric": "RP-LC retention time", "Reading unit": "s", "Obs value": 1090}
{"Compound": "CNc1cc(C(N)=O)c2cccc(Cl)c2n1", "Measured metric": "RP-LC retention time", "Reading unit": "s", "Obs value": 559}
{"Compound": "Cc1ccc(-c2cn3ccn(-c4ccc(F)c(Cl)c4)c(=O)c3n2)cc1", "Measured metric": "RP-LC retention time", "Reading unit": "s", "Obs value": 927}
{"Compound": "CCn1ccc(C(=O)N2CCCC2c2cccc(C)c2)n1 (stereo not given)", "Measured metric": "RP-LC retention time", "Reading unit": "s", "Obs value": 890}
{"Compound": "Cc1ccc(Sc2nccnc2N2CCCC(C(=O)Nc3ccc(F)cc3C)C2)cc1 (stereo not given)", "Measured metric": "RP-LC retention time", "Reading unit": "s", "Obs value": 1140}
{"Compound": "CCCC(CCC)C(=O)NCCS(=O)(=O)N1CCN(c2ccccn2)CC1", "Measured metric": "RP-LC retention time", "Reading unit": "s", "Obs value": 594}
{"Compound": "O=C(NCc1ccc(F)cc1)Nc1ccc2c(c1)CCN2S(=O)(=O)c1ccccc1", "Measured metric": "RP-LC retention time", "Reading unit": "s", "Obs value": 904}
{"Compound": "c1ccc(Sc2ncccn2)nc1", "Measured metric": "RP-LC retention time", "Reading unit": "s", "Obs value": 662}
{"Compound": "O=C(NCCc1c[nH]c2ccccc12)C1CCCN(c2nnc(N3CCCC3=O)s2)C1 (stereo not given)", "Measured metric": "RP-LC retention time", "Reading unit": "s", "Obs value": 690}
